Property: melting point; scope: individual molecules

Given the entry COc1ccc(S(N)(=O)=O)cc1-n1nc(C)c(S(N)(=O)=O)c1C [Compound 9l] , report its measured melting point. 238 to 242 °C

Given the entry COc1ccc(S(N)(=O)=O)cc1-n1cccn1 [Compound 7l] , report its measured melting point. 255 to 257 °C

Given the entry NS(=O)(=O)c1ccc(-n2cc(S(N)(=O)=O)cn2)cc1 [Compound 9c] , report its measured melting point. 254 to 257 °C

Given the entry COc1cc(-n2nc(C)cc2C)ccc1S(N)(=O)=O [Compound 7i] , report its measured melting point. 156 to 158 °C

Given the entry Cc1nn(-c2ccc(S(N)(=O)=O)cc2)c(C)c1S(N)(=O)=O [Compound 9b] , report its measured melting point. 272 to 274 °C

Given the entry NS(=O)(=O)c1ccc(Cl)c(-n2cccn2)c1 [Compound 7n] , report its measured melting point. 204 to 206 °C

Given the entry Cc1nn(-c2ccccc2Cl)c(C)c1S(N)(=O)=O [Compound 8i] , report its measured melting point. 204 to 206 °C

Given the entry NS(=O)(=O)c1ccc(-n2cccn2)cc1 [Compound 7a, 4-(^1H-pyrazol-1-yl)benzenesulfonamide] , report its measured melting point. 323 to 325 °C

Given the entry NS(=O)(=O)c1ccc(Cl)c(-n2cc(S(N)(=O)=O)cn2)c1 [Compound 9r] , report its measured melting point. 235 to 237 °C

Given the entry Cc1cc(C)n(-c2ccc(S(N)(=O)=O)c(C)c2)n1 [Compound 7c] , report its measured melting point. 194 to 196 °C

Next:
Given the entry COc1ccc(-n2nc(C)cc2C)cc1S(N)(=O)=O [Compound 7g] , report its measured melting point. 195 to 197 °C

Given the entry Cc1nn(-c2ccc(Cl)cc2)c(C)c1S(N)(=O)=O [Compound 8a] , report its measured melting point. 164 to 166 °C

----------
- experimental system: hCA VII (Homo sapiens)
- Sequence (P43166 whole entry): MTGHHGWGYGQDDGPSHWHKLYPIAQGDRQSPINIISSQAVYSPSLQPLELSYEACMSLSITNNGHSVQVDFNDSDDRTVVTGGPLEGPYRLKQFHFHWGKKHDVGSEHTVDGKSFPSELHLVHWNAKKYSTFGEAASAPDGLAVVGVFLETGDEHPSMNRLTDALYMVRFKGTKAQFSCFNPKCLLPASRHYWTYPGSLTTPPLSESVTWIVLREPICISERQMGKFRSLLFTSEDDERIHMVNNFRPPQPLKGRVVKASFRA
- experimental protocol: stopped-flow CA catalysed CO2 hydration assay, hCA VII
measurement kind: pKi
Units for pKi: none; it is -log10 of a concentration expressed in mol/L.

Given the entry NS(=O)(=O)c1cnn(-c2ccc(Cl)c(S(N)(=O)=O)c2)c1 , report its measured pKi. 7.00

Given the entry Cc1cc(-n2cccn2)ccc1S(N)(=O)=O , report its measured pKi. 7.85

Next:
Given the entry NS(=O)(=O)c1ccc(Cl)c(-n2cccn2)c1 , report its measured pKi. 8.05

Given the entry COc1ccc(-n2nc(C)c(S(N)(=O)=O)c2C)cc1S(N)(=O)=O , report its measured pKi. 6.48

Given the entry Cc1cc(C)n(-c2cc(S(N)(=O)=O)ccc2C)n1 , report its measured pKi. 6.71

Given the entry Cc1nn(-c2ccc(S(N)(=O)=O)c(Cl)c2)c(C)c1S(N)(=O)=O , report its measured pKi. 6.15

----------
- experimental system: hCA II (Homo sapiens, UniProt P00918)
- experimental protocol: stopped-flow CA catalysed CO2 hydration assay, hCA II
pKi: −log10 of the molar value.
Assign a class from recorded pKi; defined classes: bin A: < 6; bin B: ≥ 6 and < 8; bin C: ≥ 8

Solved cases below.
For this compound, which bin applies? COc1ccc(S(N)(=O)=O)cc1-n1cccn1 [Compound 7l] bin A

For this compound, which bin applies? NS(=O)(=O)c1ccc(-n2cccn2)cc1Cl [Compound 7m] bin B

For this compound, which bin applies? COc1ccc(S(N)(=O)=O)cc1-n1nc(C)cc1C [Compound 7k] bin A

Next:
For this compound, which bin applies? COc1ccc(S(N)(=O)=O)cc1-n1nc(C)c(S(N)(=O)=O)c1C [Compound 9l] bin B

For this compound, which bin applies? Cc1nn(-c2ccc(S(N)(=O)=O)cc2)c(C)c1S(N)(=O)=O [Compound 9b] bin C

For this compound, which bin applies? NS(=O)(=O)c1ccc(Cl)c(-n2cccn2)c1 [Compound 7n] bin C

For this compound, which bin applies? Cc1cc(C)n(-c2ccc(S(N)(=O)=O)cc2)n1 [Compound 7o] bin C

For this compound, which bin applies? COc1cc(-n2nc(C)c(S(N)(=O)=O)c2C)ccc1S(N)(=O)=O [Compound 9k] bin B

For this compound, which bin applies? Cc1cccc(-n2nc(C)c(S(N)(=O)=O)c2C)c1 [Compound 8d] bin B

For this compound, which bin applies? Cc1nn(-c2ccccc2Cl)c(C)c1S(N)(=O)=O [Compound 8i] bin A

For this compound, which bin applies? Cc1nn(-c2cccc(S(N)(=O)=O)c2)c(C)c1S(N)(=O)=O [Compound 9a] bin B

For this compound, which bin applies? Cc1ccc(-n2cccn2)cc1S(N)(=O)=O [Compound 7b] bin A

FYI, the data here is from paper PMC6445164.
